- target_entity: T1, human plasma Kallikrein (human, UniProt P03952 20-638)
- T1 construct: also called hPK; human PK
- assay_text: phage binding assay
Numbered stars: 1 amine (or outer) side, 2 acyl side, 3 side chain; on linkers, the order of the positions; unused ones are H or OH. Bridge positions count the residues as written; N and C are the ends. Ends that are not written are not given here. TBMB = c1c(C[*:1])cc(C[*:3])cc1C[*:2]
Catalogue of BINDING ASSAY SIGNAL readings, one per entry.
Give the figure only, with no unit attached.

Check out these entries, answers already filled in.
[[record]]
binder = "CAWPARCTHYDLC (linker 1-7-13 via TBMB, on phage)"
endpoint_label = "BINDING ASSAY SIGNAL"
quantitative_result = 70

[[record]]
binder = "CAWPARCLHQDWC (linker 1-7-13 via TBMB, on phage)"
endpoint_label = "BINDING ASSAY SIGNAL"
quantitative_result = 63

[[record]]
binder = "CPWPARCLHTDLC (linker 1-7-13 via TBMB (inferred), on phage)"
endpoint_label = "BINDING ASSAY SIGNAL"
quantitative_result = 58


Input: Query (binder): CPWPARCTHTDLC (linker 1-7-13 via TBMB (inferred), on phage) ; field requested: BINDING ASSAY SIGNAL
Output: 70

All figures here come from patent US20180362585A1.
